Measured Activity by item
- System: MDA-MB-231
- measurement notes: Induction of apoptosis in human MDA-MB-231 cells assessed as early apoptotic cells after 72 hrs by Annexin-V/FITC staining based flow cytometry (reference value: 5.98%)
- Format: functional
measure name: Activity (%)

molecular string	uom	result value
C[C@]12CCC=CC1=CC[C@@H]1[C@@H]2CC[C@@]2(C)[C@H]1CC[C@@]2(O)Cc1ccccn1	%	2.99
C[C@]12CCC=CC1=CC[C@@H]1[C@@H]2CC[C@]2(C)/C(=C/c3ccccn3)CC[C@@H]12	%	4.64
C[C@]12CC[C@H](O)[C@H](O)C1=CC[C@@H]1[C@@H]2CC[C@@]2(C)[C@H]1CC[C@@]2(O)Cc1ccccn1	%	2.7
